Test system: MDA-MB-231 breast
Experiment: NCI tumour cell line growth inhibition, 48 h
OBSERVABLE: TGI

get_value(item= NC(=O)C1CCN(Cc2c(Cl)c(Cl)c(CN3CCC(C(N)=O)CC3)c(Cl)c2Cl)CC1 , readout=TGI) returns 96 µM

Sure, the documented TGI for CCC1(CC)C(=O)N(C(=O)c2cc(OC)c(OC)c(OC)c2)N(C(=O)c2cc(OC)c(OC)c(OC)c2)C1=O is > 50 µM

Looking up CN(N)c1nc(N)c(C#N)c(C#N)c1C#N , I found its TGI recorded as > 10 µM

O=C(NC(C(F)(F)F)(C(F)(F)F)P(=O)(Cc1ccccc1)Cc1ccccc1)C(C(F)(F)F)C(F)(F)F has a reported TGI of 38.8 µM

Lab note: O=C(c1ccco1)N(C(=O)N1CCC(c2ccccc2)CC1)c1ccccc1 gave TGI of > 100 µM

Noted for C=C1[C@@H]2CCC3[C@]4(C)C(CC[C@@]5(C)C(=O)O[C@H](O)[C@@H]45)[C@H](O)[C@]3(C2)[C@H]1OC1OC(CO)C(O)C(O)C1O (some centres not stated) : its TGI reads > 50 µM

Field TGI (entry CSc1ncc2c(n1)-c1ccccc1OC2NC1CC1 (configuration not stated) ) reads > 100 µM

* * *

System: TK-10 renal
Experiment: NCI tumour cell line growth inhibition, 48 h
The following compounds are shown together with reported GI50 values.

A selection of reference data follows.
# COMPOUND, VALUE MEASURED
data = [
    ("O=C1NC(c2ccccc2)C2(C(=O)O)CN(C3CC3)c3cc(N4CCNCC4)c(F)cc3C2N1 (stereo not given)", "> 100 µM"),
    ("CCn1c2ccccc2c2cc(C(=O)c3ccc(C)c4ccccc34)ccc21", "0.658 µM"),
    ("COC(=O)N[C@H]1CCc2c(Cl)c(OC)c(OC)c(OC)c2-c2ccc(SC)c(=O)cc21", "15.8 µM"),
    ("COc1cc(/C=C2\\CCCC3=C2N=C2SC(C)=NN2C3c2cc(OC)c(OC)c(OC)c2)cc(OC)c1OC (stereo not given)", "> 100 µM"),
]

Next compound, GI50 to be filled in.
Value of GI50 reported for the compound O=C1c2cc3c(cc2-c2c1c1ccc(Cl)cc1c(=O)n2CCCn1ccnc1)OCO3 is 0.54 µM

* * *

This listing pairs molecules with measured TGI.
Test system: SK-MEL-2 melanoma
Experiment: NCI tumour cell line growth inhibition, 48 h

Example entries begin here.
# MOLECULE, TGI
data = [
    ("COc1ccc2c(c1)CN1CCc3c(cc(OC)c(OC)c3OC)C1C2 (stereo not given)", "> 100 µM"),
    ("Cc1c(C(=O)NNc2ccccc2)n2c(=S)[nH]nc2c2ccccc12", "> 100 µM"),
    ("COc1ccc(S(=O)(=O)N(C(C)=O)c2ccccc2/C=C/c2cc[n+]([O-])cc2)cc1", "> 10 µM"),
    ("CC(=O)[O-].N.N.N.N.[Co+3].[O-][Cl+3]([O-])([O-])[O-].[OH3+]", "> 100 µM"),
    ("COc1ccc(C2c3cc4c(cc3OC(Nc3ccccc3)C2C)OCO4)cc1 (stereo not given)", "> 100 µM"),
    ("COc1cc(/C=N/N=C(\\N)NO)c([N+](=O)[O-])cc1OC", "> 100 µM"),
]

Sample C=C1[C@@H]2CCC3[C@]4(C)C(CC[C@@]5(C)C(=O)O[C@H](O)[C@@H]45)[C@H](O)[C@]3(C2)[C@H]1OC1OC(CO)C(O)C(O)C1O (stereo not given in full) ; TGI observed: > 50 µM

Lookup result for O=C1NC(c2ccccc2)C2(C(=O)O)CN(C3CC3)c3cc(N4CCNCC4)c(F)cc3C2N1 (stereo not given) ; measured TGI: > 100 µM

Reported TGI ( Cc1cccc2c1[nH]c(=O)c1c3ccccc3cn21 ) = > 100 µM

TGI recorded for this molecule, C=C1CCC2C3(C)COC(c4ccccc4Cl)OC3CCC2(C)C1/C=C/C1=CCOC1=O (stereo not given) , is > 100 µM
